Header: pIC50 / human PDE10A2 (Homo sapiens (Human), UniProt Q9Y233) / multiple publications
Reminder that pIC50 is minus the log10 of a molar concentration.

Record request: pIC50 value, item "Cn1ncc(C(=O)NCc2nnn[nH]2)c1C(=O)Nc1ccn2cc(-c3ccccc3)nc2n1" 6.63

Also need "COC(=O)c1ccc(-c2ncnc3c2nc(C(F)(F)F)n3[C@H]2C[C@H](Nc3ncc4ccccc4n3)C2)cc1" , thanks. 6.13

Also need CNC(=O)c1nn(C)cc1NC(=O)c1nc(C2CCCO2)cnc1Nc1cncnc1 (stereo not drawn) , thanks. 7.02

Also need "COc1cccn2nc(CCc3nc(-c4cccnc4)c[nH]3)nc12" , thanks. 6.57

Also need COc1cc2ncnc(N3CCOC(c4ccc(C)cc4)C3)c2cc1OC (stereo not drawn) , thanks. 7.10

Also need "Cc1cccn2nc(CCc3nc(-c4cccs4)c[nH]3)nc12" , thanks. 9.00

###

Header: IC50 / human PDE10A2 (Homo sapiens (Human), UniProt Q9Y233) / multiple publications
The reply should contain only the number, in nM.

Record request: IC50 value, item "COc1ccc(C)n2nc(CCc3cn(C)c(-c4ccccc4)n3)nc12" 79

Also need "Cc1ccc(O)cc1-c1nnc2c(C)nc3ccc(C(C)C)nc3n12" , thanks. 16

Also need "Cc1c(Cl)cc(OC2CCOCC2)c2nc(CCc3nc(N4CCCC4)nn3C)nn12" , thanks. 0.36

Also need "Cc1nc2ccccc2nc1/C=C/c1nc(N2CCCC2)nn1C" , thanks. 105

Also need "COc1ccc(C)n2nc(CCc3nc(-c4ccccc4)nn3CC(F)(F)F)nc12" , thanks. 180

Also need "CNC(=O)c1ccc(-c2nccnc2C2CCN(c3ccc4ccccc4n3)CC2)cc1F" , thanks. 3.1

Also need "Cn1c(N[C@H]2C[C@H](n3c(=O)n(C4CC4)c4nccnc43)C2)nc2ccccc21" , thanks. 1.2

Also need "CNC(=O)c1cc(CCc2nc(-c3ccccn3)cn2C)nn2c(C)c(C(F)(F)F)nc12" , thanks. 8

Also need "Cc1c(Cl)cc(C(F)(F)F)c2nc(CCc3nc(N4CCCC4)n(C4CC4)n3)nn12" , thanks. 1.58

Also need "O=c1n(C2CC2)c2nccnc2n1[C@H]1C[C@H](Nc2nc3ccc(Cl)cc3o2)C1" , thanks. 10.1

Also need "CC1(C)C(=O)N([C@@H]2CCN(c3nc4ccccc4s3)C2)c2nccnc21" , thanks. 656

Also need "Cn1ncc(C(=O)N2CC=CC2)c1C(=O)Nc1ccn2cc(-c3ccccc3)nc2n1" , thanks. 2.8

Also need "COC(C)(C)CNC(=O)c1ccncc1NC(=O)c1nc(C2CC2)cnc1Nc1cncnc1" , thanks. 1.6

Also need CN(CC(O)CO)C(=O)c1nn(C)cc1NC(=O)c1nc(C2CC2)ccc1Nc1cncnc1 (stereo not drawn) , thanks. 19.3

###

Header: IC50 / human PDE10A2 (Homo sapiens (Human), UniProt Q9Y233) / multiple publications
Criterion: IC50 strictly less than 300 nM. Met: label 1. Not met: label 0.

Please state whether IC50 is below 300 nM for "Cc1cc(C(=O)Nc2ccn3cc(-c4ccccc4)nc3n2)cc(Cl)n1" label 0

Also need "COc1cn(-c2cnn(CC3CCC3)c2)nc(-c2ccnn2-c2ccccc2)c1=O" , thanks. label 1

Also need "CNC(=O)c1c(NC(=O)c2nc(Cl)ccc2Nc2cncnc2)cnn1C" , thanks. label 0

Also need "Cc1ccc(C)n2nc(CCc3c[nH]c(-c4ccoc4)n3)nc12" , thanks. label 1

Also need "Cc1cc(C)n2nc(CCc3nc(-c4ccc(C)o4)cn3C)nc2n1" , thanks. label 1

Also need "Cn1ncc(C(=O)NCCCO)c1C(=O)Nc1ccn2cc(-c3ccccc3)nc2n1" , thanks. label 1

Also need "Cn1ncc(-c2ncccc2C#N)c1C(=O)Nc1cc2nc(-c3ccccc3)nn2cc1F" , thanks. label 1
